meta.source: PubChem BioAssay AID1745844

system: rodent lifetime carcinogenesis bioassay, tumor incidence TD50; experiment: carcinogenic potency in animals, long-term in vivo studies, CPDB compilation (AID 1745844); settings: mouse; strain (C57BL/6 x BALB/c)F1; males; in feed; site: pituitary gland; lesion: adenoma; dosed 150 weeks; study length 169 weeks
Assay Endpoint: TD50

1. CC/C(=C(/CC)c1ccc(O)cc1)c1ccc(O)cc1; 0.0722 mg/kg/day

* * *

tested on: rodent lifetime carcinogenesis bioassay, tumor incidence TD50; assay: carcinogenic potency in animals, long-term in vivo studies, CPDB compilation (AID 1745844); settings: rat; strain LEW/Crj (Lewis); males; in feed; site: stomach, glandular; lesion: sarcoma; dosed 104 weeks; study length 104 weeks
Assay Endpoint: TD50 (mg/kg/day)

1) Oc1ccccc1O; 2080
